Test: Elimination rate constant in Sprague-Dawley rat at 1.25 mg/kg, iv measured up to 24 hrs by HPLC analysis
Type: ADME, organism-based
Settings: in vivo
READOUT_TYPE: k el at 24 h (s⁻¹)
Kindly answer with a numeric value in s⁻¹, unit omitted.

Give its k el at 24 h value. Item: "O=C(CNc1nc(N2CCCC2)nc2ccccc12)Nc1ccc2ccccc2c1" 0.000286

---

Experiment: Cmax in Sprague-Dawley rat at 25 mg/kg, po measured up to 24 hrs by HPLC analysis
Type: ADME, organism-based
Parameters: route oral, dose 25 mg/kg, time <=24
Details: in vivo
READOUT_TYPE: Cmax

Quick check: Cmax of "O=C(CNc1nc(N2CCCC2)nc2ccccc12)Nc1ccc2ccccc2c1" ? 78.6 ng/mL

---

Test system: Influenza A virus
Assay: Antiviral activity against Influenza A virus A/WSN/33(H1N1) infected in HEK293T-Gluc cells pretreated for 2 hrs followed by viral infection and measured after 24 hrs by Gaussia luciferase reporter gene assay
Assay type: functional, organism-based
Details: A/WSN/1933(H1N1), HEK-293T
READOUT_TYPE: pIC50
Here pIC50 is given on a logarithmic scale as minus log10 of the concentration in mol/L.

Before answering, review these 3 worked examples.
- LINE_NOTATION: "O=C(CNc1nc(N2CCCC2)nc2ccccc12)NCc1ccco1"
  pIC50: 4.40
- LINE_NOTATION: "O=C(CNc1nc(N2CCc3ccccc3C2)nc2ccccc12)Nc1ccc2ccccc2c1"
  pIC50: 5.46
- LINE_NOTATION: "O=C(CSc1nc(N2CCCC2)nc2ccccc12)NC1CC1"
  pIC50: 4.42

With those in mind, consider the next molecule.
Query pIC50 on Influenza A virus for "CCOc1ccc(NC(=O)CSc2c[nH]c3ccc(Br)cc23)cc1" 5.38

---

Test system: Influenza A virus
Assay: Antiviral activity against Influenza A virus A/PR/8/34 (H1N1) infected in HEK293T-Gluc cells pretreated for 2 hrs followed by viral infection and measured after 24 hrs by Gaussia luciferase reporter gene assay
Assay type: functional, organism-based
Conditions: A/Puerto Rico/8/1934(H1N1), HEK-293T
READOUT_TYPE: IC50 (µM)
Please reply with the bare figure in µM and do not write the unit itself.

Suppose we examine the compound "O=C(CNc1nc(N2CCc3ccccc3C2)nc2ccccc12)NCc1ccccc1" ; what IC50 value has been reported? 0.12

Item "CCN(CC)c1nc(NCC(=O)NCc2ccccc2)c2ccccc2n1" has what recorded IC50? 5.8

Which measured IC50 value corresponds to "O=C(CNc1nc(N2CCCC2)nc2ccccc12)Nc1ccccc1" ? 1.47

Item under review: "CCOc1ccc(NC(=O)CSc2c[nH]c3ccc(Br)cc23)cc1" . Reported IC50? 0.33

What measured IC50 goes with "CCN(CC)c1nc(SCC(=O)Nc2ccccc2)c2ccccc2n1" ? 1.69

Report IC50 for "O=C(CNc1nc(N2CCCC2)nc2ccccc12)Nc1cc(Cl)cc(Cl)c1" please. 0.95

Name the reported IC50 value associated with the compound "O=C(CNc1nc(N2CCCC2)nc2ccccc12)Nc1ccc2ccccc2c1" 0.63

Fill in: IC50 of "O=C(CNc1nc(N2CCOCC2)nc2ccccc12)NCc1ccccc1" is ___ 6.05

State the recorded IC50 for this entry: "O=C(CNc1nc(N2CCc3ccccc3C2)nc2ccccc12)Nc1ccccc1" 0.41

---

Experiment: Half life in Sprague-Dawley rat at 25 mg/kg, po measured up to 24 hrs by HPLC analysis
Format: ADME, organism-based
Conditions: in vivo
READOUT_TYPE: half-life (h)
The figure you give is taken to be in h; do not add the unit.

What does the data say about its half-life? Entry: "O=C(CNc1nc(N2CCCC2)nc2ccccc12)Nc1ccc2ccccc2c1" 2.25

---

Test: Mean residence time in Sprague-Dawley rat at 1.25 mg/kg, iv measured up to 24 hrs by HPLC analysis
Assay type: ADME, organism-based
Conditions: in vivo
READOUT_TYPE: MRT

Recorded MRT of "O=C(CNc1nc(N2CCCC2)nc2ccccc12)Nc1ccc2ccccc2c1" , please. 47.4 min

---

Experiment: Initial plasma concentration in Sprague-Dawley rat at 1.25 mg/kg, iv measured up to 24 hrs by HPLC analysis
Type: ADME, organism-based
READOUT_TYPE: C0 at 24 h (ng/mL)
Numeric only. Scale: ng/mL

Need C0 at 24 h, item "O=C(CNc1nc(N2CCCC2)nc2ccccc12)Nc1ccc2ccccc2c1" 80.8

---

Test system: Influenza A virus
Assay: Antiviral activity against Influenza A virus A/WSN/33(H1N1) infected in HEK293T-Gluc cells assessed as inhibition of virus infection at 10 uM pretreated for 2 hrs followed by viral infection and measured after 24 hrs by Gaussia luciferase reporter gene assay
Assay type: functional
Conditions: A/WSN/1933(H1N1), HEK-293T, time 26 hrs
READOUT_TYPE: inhibition at 10 µM (%)
Respond numerically; units are % and should not be typed.

- LINE_NOTATION: "CCOc1ccc(NC(=O)CSc2c[nH]c3ccc(Br)cc23)cc1"
  READOUT_TYPE: "inhibition at 10 µM"
  UNIT_SPEC: "%"
  OBSERVED: 90.2
- LINE_NOTATION: "O=C(CNc1nc(N2CCCC2)nc2ccccc12)Nc1ccc2ccccc2c1"
  READOUT_TYPE: "inhibition at 10 µM"
  UNIT_SPEC: "%"
  OBSERVED: 99.8
- LINE_NOTATION: "O=C(CNc1nc(N2CCc3ccccc3C2)nc2ccccc12)Nc1ccccc1"
  READOUT_TYPE: "inhibition at 10 µM"
  UNIT_SPEC: "%"
  OBSERVED: 98.2
- LINE_NOTATION: "O=C(COc1cccc2ccccc12)Nc1ccc(F)cc1"
  READOUT_TYPE: "inhibition at 10 µM"
  UNIT_SPEC: "%"
  OBSERVED: 78

What inhibition at 10 µM value was documented for this molecule, "O=C(CNc1nc(N2CCCC2)nc2ccccc12)Nc1ccccc1" ? 95.8

---

Test: Selectivity index, ratio of CC50 for human HEK293T cells to IC50 for Influenza A virus A/WSN/33(H1N1) infected in HEK293T-Gluc cells
Type: toxicity, cell-based
Settings: read-out: Ratio CC50/IC50
Known selectivity ratio of a selection of molecules

- LINE_NOTATION: "O=C(CNc1nc(N2CCc3ccccc3C2)nc2ccccc12)Nc1ccc2ccccc2c1"
  selectivity ratio: "> 29.1"
- LINE_NOTATION: "NC(=O)c1ncn([C@@H]2O[C@H](CO)[C@@H](O)[C@H]2O)n1"
  selectivity ratio: "> 6.51"
- LINE_NOTATION: "O=C(CNc1nc(N2CCCC2)nc2ccccc12)Nc1cc(Cl)cc(Cl)c1"
  selectivity ratio: 1.75

Next, consider the following molecule.
Sample "O=C(CNc1nc(N2CCOCC2)nc2ccccc12)NCc1ccccc1" — what was its selectivity ratio? > 26.1

---

Assay: Volume of distribution at steady state in Sprague-Dawley rat at 1.25 mg/kg, iv measured up to 24 hrs by HPLC analysis
Type: ADME, organism-based
Conditions: in vivo, read-out: Vdss
READOUT_TYPE: Vd (L/kg)
Give your result in L/kg as a bare value.

Please give the measured Vd for this compound: "O=C(CNc1nc(N2CCCC2)nc2ccccc12)Nc1ccc2ccccc2c1" 26.6

---

Experiment: Cytotoxicity against human HEK293T cells assessed as reduction in cell viability after 48 hrs by CCK8 assay
Format: cell-based, HEK-293T
Some compounds, each annotated with its measured CC50 at 48 h.

Guide cases for CC50 at 48 h, answers given:
- LINE_NOTATION: "O=C(CNc1nc(N2CCc3ccccc3C2)nc2ccccc12)Nc1ccccc1"
  CC50 at 48 h: "36.6 µM"
- LINE_NOTATION: "CCN(CC)c1nc(SCC(=O)Nc2ccccc2)c2ccccc2n1"
  CC50 at 48 h: "> 100 µM"
- LINE_NOTATION: "O=C(CSc1nc(N2CCCC2)nc2ccccc12)NC1CC1"
  CC50 at 48 h: "> 100 µM"
- LINE_NOTATION: "O=C(CNc1nc(N2CCc3ccccc3C2)nc2ccccc12)Nc1ccc2ccccc2c1"
  CC50 at 48 h: "> 100 µM"
- LINE_NOTATION: "O=C(CNc1nc(N2CCCC2)nc2ccccc12)Nc1ccccc1"
  CC50 at 48 h: "23.3 µM"
- LINE_NOTATION: "CCN(CC)c1nc(SCC(=O)NCc2ccccc2)c2ccccc2n1"
  CC50 at 48 h: "> 100 µM"
- LINE_NOTATION: "O=C(CNc1nc(N2CCOCC2)nc2ccccc12)NCc1ccccc1"
  CC50 at 48 h: "> 100 µM"
- LINE_NOTATION: "O=C(COc1cccc2ccccc12)Nc1ccc(F)cc1"
  CC50 at 48 h: "> 100 µM"
- LINE_NOTATION: "CCN(CC)c1nc(NCC(=O)NCc2ccccc2)c2ccccc2n1"
  CC50 at 48 h: "> 100 µM"
- LINE_NOTATION: "O=C(CNc1nc(N2CCCC2)nc2ccccc12)Nc1ccc2ccccc2c1"
  CC50 at 48 h: "59.9 µM"

Would you kindly look at the next entry?
Using the record for "CCOc1ccc(NC(=O)CSc2c[nH]c3ccc(Br)cc23)cc1" , report its CC50 at 48 h. 44 µM
